All values here come from ChEMBL document CHEMBL1806428.

Recorded log10 of IC50, one value per entry.
system: PC-3; assay: Cytotoxicity against human PC3 cells assessed as cell growth after 48 hrs by sulforhodamine B assay; format: functional, cell-based; conditions: Homo sapiens, PC-3, 48 h
Please note: log10 values; quantity IC50; unit µM.

See these solved cases before continuing.
Cc1ccc(C2=NO[C@]3(C2)C(=O)O[C@@H]2[C@H]3CC[C@H](C)[C@]3(O)C=CC(=O)[C@@]23C)cc1; 1.15
C[C@H]1CC[C@@H]2[C@@H](OC(=O)[C@]23CC(c2ccc(N(C)C)cc2)=NO3)[C@]2(C)C(=O)C=C[C@@]12O; 0.80
C[C@H]1CC[C@@H]2[C@@H](OC(=O)[C@]23CC(c2c(F)c(F)c(F)c(F)c2F)N(c2ccccc2)O3)[C@]2(C)C(=O)C=C[C@@]12O (stereo partly drawn); 0.75
C[C@H]1CC[C@@H]2[C@@H](OC(=O)[C@]23CC(c2cccc([N+](=O)[O-])c2)=NO3)[C@]2(C)C(=O)C=C[C@@]12O; 1.74
COc1ccc(C2C[C@@]3(ON2c2ccccc2)C(=O)O[C@@H]2[C@H]3CC[C@H](C)[C@]3(O)C=CC(=O)[C@@]23C)cc1 (stereo partly drawn); 0.76
C[C@H]1CC[C@@H]2[C@@H](OC(=O)[C@]23CC(c2ccccc2F)N(c2ccccc2)O3)[C@]2(C)C(=O)C=C[C@@]12O (stereo partly drawn); 0.43
C[C@H]1CC[C@@H]2[C@@H](OC(=O)[C@]23CC(c2c(F)cccc2F)N(c2ccccc2)O3)[C@]2(C)C(=O)C=C[C@@]12O (stereo partly drawn); 0.40
COc1ccc(C2C[C@@]3(ON2c2ccccc2)C(=O)O[C@@H]2[C@H]3CC[C@H](C)[C@]3(O)C=CC(=O)[C@@]23C)cc1Br (stereo partly drawn); 0.76
C[C@H]1CC[C@@H]2[C@@H](OC(=O)[C@]23CC(c2ccc(C#N)cc2)N(c2ccccc2)O3)[C@]2(C)C(=O)C=C[C@@]12O (stereo partly drawn); 0.68
C[C@H]1CC[C@@H]2[C@@H](OC(=O)[C@]23CC(c2ccccc2)N(c2ccccc2)O3)[C@]2(C)C(=O)C=C[C@@]12O (stereo partly drawn); 0.76

Qu. Quick check: log10 of IC50 of C[C@H]1CC[C@@H]2[C@@H](OC(=O)[C@]23CN3c2ccccc2[N+](=O)[O-])[C@]2(C)C(=O)C=C[C@@]12O ?
Ans. 1.00

Qu. Quick check: log10 of IC50 of Cc1ccccc1C1=NO[C@]2(C1)C(=O)O[C@@H]1[C@H]2CC[C@H](C)[C@]2(O)C=CC(=O)[C@@]12C ?
Ans. 1.00

Qu. Quick check: log10 of IC50 of C[C@H]1CC[C@@H]2[C@@H](OC(=O)[C@]23CC(c2c(Cl)cccc2Cl)=NO3)[C@]2(C)C(=O)C=C[C@@]12O ?
Ans. 1.75
